Assay: green autofluorescence of compounds with avidin beads – biophysical, 488/530 nm, flow cytometry, artefact control, profiling panel (AID 1775)
Settings: compound fluorescence 488/530 nm, at 10 µM, stronger effect = higher value
Out of some 220,000 compounds screened, about 820 (0.37%) were called active. This excerpt belongs to a sample that is enriched for actives.
Recorded measurements of fluorescence (KMESF), one per entry

- Compound: "CN(c1ccccc1)c1ccc(/C=c2\\s/c(=C(/C#N)C(=O)C(C)(C)C)n(Cc3ccco3)c2=O)cc1"
  fluorescence (KMESF): 453
- Compound: "Oc1[nH]c2ccc(Br)cc2c1N=Nc1nn[nH]n1"
  fluorescence (KMESF): 4
- Compound: "Cc1ccc2c(C)c(C(=O)N3CCC(N4CCC(C(=O)NC5CC5)CC4)CC3)oc2c1"
  fluorescence (KMESF): 8
- Compound: "COc1ccc(-c2nnn(CC(=O)N(CCO)C(C(=O)NC3CCCC3)c3ccc(F)cc3)n2)cc1 (centres undefined)"
  fluorescence (KMESF): 12
